These entries and their values trace back to patent US20230286970A1.

# SYSTEM_NAME: recombinant human HDAC1 (Homo sapiens (Human))
# Sequence (Q13547 whole entry): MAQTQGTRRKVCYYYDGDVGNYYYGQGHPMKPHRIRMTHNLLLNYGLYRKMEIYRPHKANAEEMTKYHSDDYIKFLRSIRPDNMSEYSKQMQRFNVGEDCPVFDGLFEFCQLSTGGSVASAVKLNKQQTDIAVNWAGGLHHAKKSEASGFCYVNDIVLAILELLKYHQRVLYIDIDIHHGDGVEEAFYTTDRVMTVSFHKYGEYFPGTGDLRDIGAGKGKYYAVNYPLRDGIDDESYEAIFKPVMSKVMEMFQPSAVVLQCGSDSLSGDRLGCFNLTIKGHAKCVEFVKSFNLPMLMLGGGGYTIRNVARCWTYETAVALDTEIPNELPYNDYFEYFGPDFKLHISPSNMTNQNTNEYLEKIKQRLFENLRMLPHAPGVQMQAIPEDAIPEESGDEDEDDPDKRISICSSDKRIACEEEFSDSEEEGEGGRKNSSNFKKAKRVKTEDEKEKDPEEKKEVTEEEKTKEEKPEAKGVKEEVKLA
# PROCEDURE_DETAILS: Enzymatic screening, HDAC1 inhibition (fluorogenic FdL_G substrate)
pIC50: −log10 of the molar value.
Items are presented alongside their recorded pIC50.

{"SMILES_REPR": "CC1(C)C(=O)Nc2ccc(-c3cn(Cc4ccc(-c5nnc(C(F)F)o5)cn4)nn3)cc21", "pIC50": "< 3.00"}
{"SMILES_REPR": "CNc1ccc2cc(-c3cn(Cc4ccc(-c5nnc(C(F)F)o5)cn4)nn3)ccc2n1", "pIC50": "< 3.70"}
{"SMILES_REPR": "Nc1nc2cc(-c3nnn(Cc4ccc(-c5nnc(C(F)F)o5)cn4)n3)ccc2o1", "pIC50": "< 3.70"}
{"SMILES_REPR": "O=C(Nc1cncc(-c2nnn(Cc3ccc(-c4nnc(C(F)F)o4)cc3)n2)c1)N1CCOCC1", "pIC50": "< 3.70"}
{"SMILES_REPR": "Nc1nc2cc(-c3cn(Cc4ccc(-c5nnc(C(F)F)o5)cn4)cn3)ccc2o1", "pIC50": "< 3.00"}

Given the compound NC(=O)c1cccc(-c2cn(Cc3ccc(-c4nnc(C(F)F)o4)cc3)cn2)c1 , what is its reported pIC50?
< 3.70

Same again, this time with Cn1c(Sc2ccc(-c3nnc(C(F)F)o3)cc2)nnc1-c1ccc(N)nc1
< 3.70

Same again, this time with Nc1ccc(-c2nnn(Cc3ccc(-c4nnc(C(F)F)o4)cc3)n2)cn1
< 3.70

====

# PROCEDURE_DETAILS: Stability in rat plasma
# PROTOCOL_CONDITIONS: after 4 hours, 37° C.
MEASUREMENT_LABEL: residual percentage in RAT PLASMA (%)

Some solved cases for reference:
{"MOLECULE": "FC(F)c1nnc(-c2ccc(Cn3cc(-c4ccc(NC5=NCCN5)cc4)cn3)cc2)o1 [compound 269]", "residual percentage in RAT PLASMA, %": 71}
{"MOLECULE": "CCC[C@H](c1ccc(-c2nnc(C(F)F)o2)cc1)n1cc(-c2ccc(N)nc2)nn1 [compound 143]", "residual percentage in RAT PLASMA, %": 80}
{"MOLECULE": "Nc1ccc(-c2cn(C(CN3CCCC3)c3ccc(-c4nnc(C(F)F)o4)cc3)nn2)cn1 (centres unmarked) [Compd. 124]", "residual percentage in RAT PLASMA, %": 92}
{"MOLECULE": "O=C1NCc2ccc(-c3cn(Cc4ccc(-c5nnc(C(F)F)o5)cc4)nn3)cc21 [compound 109]", "residual percentage in RAT PLASMA, %": 78}
{"MOLECULE": "CC(=O)c1cccc(-c2nnn(Cc3ccc(-c4nnc(C(F)F)o4)cc3)n2)c1 [compound 140]", "residual percentage in RAT PLASMA, %": 58}
{"MOLECULE": "CCNc1nc2ccc(-c3cn(Cc4ccc(-c5nnc(C(F)F)o5)cc4)nn3)cc2[nH]1 [compd. 60]", "residual percentage in RAT PLASMA, %": 81}
{"MOLECULE": "O=C(Nc1cccc(-c2cn(Cc3ccc(-c4nnc(C(F)F)o4)cn3)nn2)c1)N1CCOCC1 [compound 6]", "residual percentage in RAT PLASMA, %": 93}
{"MOLECULE": "FC(F)c1nnc(-c2ccc(Cn3nnc(-c4ccc5ccccc5n4)n3)cc2)o1 [compound 113]", "residual percentage in RAT PLASMA, %": 92}

(1) O=C(Nc1cc(-c2nnn(Cc3ccc(-c4nnc(C(F)F)o4)cn3)n2)ccc1O)N1CCOCC1 [compound 2]
(2) CC(c1ccc(-c2nnc(C(F)F)o2)cc1F)n1cc(-c2ccc(N)nc2)nn1 (centres unmarked) [compound 185]
Kindly compare 1 with 2 and tell me which has the lower residual percentage in RAT PLASMA figure. Please respond with the label that marks your chosen entry.
2
(2: 62%, 1: 90%)

====

# SYSTEM_NAME: recombinant human HDAC6 (Homo sapiens (Human))
# PROCEDURE_DETAILS: Enzymatic screening, HDAC6 inhibition (fluorogenic FdL_G substrate)
MEASUREMENT_LABEL: IC50 (nM)

{"SMILES_REPR": "FC(F)c1nnc(-c2ccc(Cc3nc(-c4ccc(NC5=NCCN5)cc4)no3)cc2)o1", "SCALE_UNIT": "nM", "IC50": 17}

(a) Fc1cc(-c2nnc(C(F)F)o2)ccc1Cn1nnc(-c2cccc(-c3nc4c([nH]3)CCNC4)c2)n1
(b) Nc1nc2cc(-c3cnn(Cc4ccc(-c5nnc(C(F)F)o5)cc4)c3)ccc2[nH]1
(c) CN1CCC(NC(=O)c2ccc(-c3nnn(Cc4ccc(-c5nnc(C(F)F)o5)cc4)n3)cc2)CC1
(d) CN(Cc1ccc(-c2nc(Cc3ccc(-c4nnc(C(F)F)o4)cc3)no2)cc1)C(=O)C(F)F
(e) O=C1Nc2cc(-c3cn(Cc4ccc(-c5nnc(C(F)F)o5)cn4)nn3)ccc2C12CCCC2
Please list these compounds in decreasing order of IC50. Please respond with the labels ordered as the question requires.
d, c, b, e, a

====

Items are presented alongside their recorded IC50.
# SYSTEM_NAME: recombinant human HDAC1 (Homo sapiens (Human))
# PROCEDURE_DETAILS: Enzymatic screening, HDAC1 inhibition (fluorogenic FdL_G substrate)
# Format: biochemical

Some solved cases for reference:
{"MOLECULE": "Cn1c(N)nc2cc(-c3nnn(Cc4ccc(-c5nnc(C(F)F)o5)cc4F)n3)ccc21", "IC50": "> 1000 µM"}
{"MOLECULE": "O=C(c1cccc(-c2nnn(Cc3ccc(-c4nnc(C(F)F)o4)cc3F)n2)c1)N1CCOCC1", "IC50": "> 200 µM"}
{"MOLECULE": "CCNc1cccc(-c2cn(Cc3ccc(-c4nnc(C(F)F)o4)cc3)nn2)c1", "IC50": "> 200 µM"}

Given the molecule Nc1ccc(-c2cn(C(Cc3ccc(Cl)cc3)c3ccc(-c4nnc(C(F)F)o4)cc3)nn2)cn1 (stereo not shown) , what is its reported IC50?
> 200 µM

====

# SYSTEM_NAME: recombinant human HDAC6 (Homo sapiens (Human))
# PROCEDURE_DETAILS: Enzymatic screening, HDAC6 inhibition (fluorogenic FdL_G substrate)
MEASUREMENT_LABEL: IC50 (nM)

Some solved cases for reference:
{"COMPOUND": "NCc1ccc(-c2cn(Cc3ccc(-c4nnc(C(F)F)o4)cc3)nn2)cn1 [compound 155]", "SYSTEM_NAME": "recombinant human HDAC6 (Homo sapiens (Human))", "SCALE_UNIT": "nM", "IC50": 69}
{"COMPOUND": "O=[N+]([O-])c1ccccc1-c1nnn(Cc2ccc(-c3nnc(C(F)F)o3)cc2)n1 [compound 150]", "SYSTEM_NAME": "recombinant human HDAC6 (Homo sapiens (Human))", "SCALE_UNIT": "nM", "IC50": 64}
{"COMPOUND": "Nc1ccc(-c2cn(C(CCCO)c3ccc(-c4nnc(C(F)F)o4)cc3)nn2)cn1 (centres unmarked) [compound 335]", "SYSTEM_NAME": "recombinant human HDAC6 (Homo sapiens (Human))", "SCALE_UNIT": "nM", "IC50": 62}
{"COMPOUND": "Cn1c(N)nc2ccc(-c3cn(Cc4ccc(-c5nnc(C(F)F)o5)cc4)nn3)cc21 [compound 166]", "SYSTEM_NAME": "recombinant human HDAC6 (Homo sapiens (Human))", "SCALE_UNIT": "nM", "IC50": 78}
{"COMPOUND": "Nc1ccc(-c2cnn(Cc3ccc(-c4nnc(C(F)F)o4)cc3)c2)cn1 [compound 211]", "SYSTEM_NAME": "recombinant human HDAC6 (Homo sapiens (Human))", "SCALE_UNIT": "nM", "IC50": 147}

(a) NC(=O)c1cccc(-c2cnn(Cc3ccc(-c4nnc(C(F)F)o4)cc3)c2)c1 [compound 333]
(b) Nc1cccc(-c2cn(Cc3ccc(-c4nnc(C(F)F)o4)cc3)nn2)c1 [compound 192]
(c) Nc1nc2ccc(-c3cn(Cc4ccc(-c5nnc(C(F)F)o5)cc4)cn3)cc2s1 [compound 306]
Arrange the 3 compounds by rising IC50, starting with the smallest. Please respond with the labels ordered as the question requires.
c, b, a
(c: 32 nM, b: 102 nM, a: 321 nM)

====

# SYSTEM_NAME: recombinant human HDAC6 (Homo sapiens (Human), UniProt Q9UBN7)
# Sequence (Q9UBN7 whole entry): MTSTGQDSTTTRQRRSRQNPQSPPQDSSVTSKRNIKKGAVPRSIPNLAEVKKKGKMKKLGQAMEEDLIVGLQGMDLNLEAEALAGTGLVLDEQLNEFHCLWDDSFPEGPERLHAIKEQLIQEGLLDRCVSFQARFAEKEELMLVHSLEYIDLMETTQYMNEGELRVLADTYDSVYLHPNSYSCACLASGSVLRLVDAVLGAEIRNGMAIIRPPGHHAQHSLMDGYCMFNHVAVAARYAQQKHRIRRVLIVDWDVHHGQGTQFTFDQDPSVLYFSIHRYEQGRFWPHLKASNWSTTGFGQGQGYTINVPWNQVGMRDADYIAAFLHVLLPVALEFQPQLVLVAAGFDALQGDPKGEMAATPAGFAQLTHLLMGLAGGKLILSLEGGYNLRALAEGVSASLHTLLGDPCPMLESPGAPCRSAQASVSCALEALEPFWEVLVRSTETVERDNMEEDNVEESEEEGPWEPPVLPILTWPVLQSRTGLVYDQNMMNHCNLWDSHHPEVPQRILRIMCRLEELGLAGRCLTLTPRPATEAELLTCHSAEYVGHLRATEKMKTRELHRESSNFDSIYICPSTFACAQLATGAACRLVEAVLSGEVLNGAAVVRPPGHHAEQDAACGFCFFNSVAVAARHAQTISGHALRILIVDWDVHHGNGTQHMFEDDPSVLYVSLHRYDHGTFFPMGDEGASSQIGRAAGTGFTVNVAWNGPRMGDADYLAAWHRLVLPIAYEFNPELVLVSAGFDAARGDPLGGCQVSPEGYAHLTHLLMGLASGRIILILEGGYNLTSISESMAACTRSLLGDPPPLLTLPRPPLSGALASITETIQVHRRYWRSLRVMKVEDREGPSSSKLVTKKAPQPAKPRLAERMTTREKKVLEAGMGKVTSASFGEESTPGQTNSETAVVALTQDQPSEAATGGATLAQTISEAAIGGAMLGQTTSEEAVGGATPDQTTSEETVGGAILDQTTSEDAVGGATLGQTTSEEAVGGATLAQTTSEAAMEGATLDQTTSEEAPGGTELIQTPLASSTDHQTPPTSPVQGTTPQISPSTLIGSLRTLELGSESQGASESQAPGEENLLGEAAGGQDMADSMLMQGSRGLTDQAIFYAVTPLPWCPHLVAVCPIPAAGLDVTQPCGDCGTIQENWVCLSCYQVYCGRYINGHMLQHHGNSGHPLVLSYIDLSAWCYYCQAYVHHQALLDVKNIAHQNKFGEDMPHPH
# PROCEDURE_DETAILS: Enzymatic screening, HDAC6 inhibition (fluorogenic FdL_G substrate)
# Format: biochemical
MEASUREMENT_LABEL: IC50 (nM)

Some solved cases for reference:
{"COMPOUND": "FC(F)c1nnc(-c2ccc(Cn3nnc(C4(c5ccccc5)CC4)n3)cc2)o1", "REPORTED_MEASUREMENT": 393}
{"COMPOUND": "CCC[C@H](c1ccc(-c2nnc(C(F)F)o2)cc1)n1cc(-c2ccc(N)nc2)nn1", "REPORTED_MEASUREMENT": 60}
{"COMPOUND": "Nc1cc(-c2nnn(Cc3ccc(-c4nnc(C(F)F)o4)cc3)n2)ccc1O", "REPORTED_MEASUREMENT": 16}
{"COMPOUND": "Nc1nccc2cc(-c3nnn(Cc4cc(F)c(-c5nnc(C(F)F)o5)cc4F)n3)ccc12", "REPORTED_MEASUREMENT": 60}

(A) FC(F)c1nnc(-c2ccc(Cn3nnc(-c4cccc(-c5cnc(N6CCOCC6)s5)c4)n3)cc2)o1
(B) CS(=O)(=O)NCC(c1ccc(-c2nnc(C(F)F)o2)cc1)n1cc(-c2ccc(N)nc2)nn1 (centres unmarked)
(C) Nc1nc2cc(-c3cn(Cc4ccc(-c5nnc(C(F)F)o5)cn4)cn3)ccc2s1
(D) Nc1nc2ccc(-c3cn(Cc4ccc(-c5nnc(C(F)F)o5)c(F)c4)nn3)cc2s1
Please list these compounds in decreasing order of IC50. Please respond with the labels ordered as the question requires.
A, B, D, C
(A: 352 nM, B: 49 nM, D: 27 nM, C: 17 nM)
